Tested on: P. aeruginosa ATCC 27853
Assay: MBC/MIC, broth microdilution
Type: cell-based
Settings: aminoglycoside alone
Items are presented alongside their recorded MBC/MIC Aminoglycoside.
Parameter Measured: MBC/MIC Aminoglycoside

- Smiles Entry: "[H]/N=C(/N)N[C@H]1[C@H](O)[C@@H](O)[C@H](O[C@@H]2O[C@@H](C)[C@](O)(C=O)[C@H]2O[C@@H]2O[C@@H](CO)[C@H](O)[C@@H](O)[C@@H]2NC)[C@@H](N/C(N)=N\\[H])[C@@H]1O"
  Parameter Measured: "MBC/MIC Aminoglycoside"
  Numeric Result: 4
- Smiles Entry: "NCC[C@H](O)C(=O)N[C@@H]1C[C@H](N)[C@@H](O[C@H]2O[C@H](CN)CC[C@H]2N)[C@H](O)[C@H]1O[C@H]1O[C@H](CO)[C@@H](O)[C@H](N)[C@H]1O"
  Parameter Measured: "MBC/MIC Aminoglycoside"
  Numeric Result: 1

---

Tested on: P. aeruginosa ATCC 27853
Test: MBC/MIC, broth microdilution
Type: cell-based
Settings: aminoglycoside alone
Parameter Measured: MBC/MIC Aminoglycoside

- Compound: "NC[C@H]1O[C@H](O[C@H]2[C@H](O)[C@@H](O[C@H]3O[C@H](CO)[C@@H](O)[C@H](N)[C@H]3O)[C@H](N)C[C@@H]2N)[C@H](N)C[C@@H]1O [Tobramycin]"
  Numeric Result: 1
- Compound: "NCC[C@H](O)C(=O)N[C@@H]1C[C@H](N)[C@@H](O[C@H]2O[C@H](CN)[C@@H](O)[C@H](O)[C@H]2O)[C@H](O)[C@H]1O[C@H]1O[C@H](CO)[C@@H](O)[C@H](N)[C@H]1O [Amikacin, amikacin]"
  Numeric Result: 2
- Compound: "CCN[C@@H]1C[C@H](N)[C@@H](O[C@H]2OC(CN)=CC[C@H]2N)[C@H](O)[C@H]1O[C@H]1OC[C@](C)(O)[C@H](NC)[C@H]1O [Netilimicin, netilmicin]"
  Numeric Result: 1
- Compound: "NC[C@@H]1CC[C@@H](N)[C@@H](O[C@H]2[C@H](O)[C@@H](O[C@H]3O[C@H](CO)[C@@H](O)[C@H](N)[C@H]3O)[C@H](N)C[C@@H]2N)O1 [Dibekacin, dibekacin]"
  Numeric Result: 1

Values compiled from patent US8980226B2.
